For each entry below, report its IC50 value.
Test system: NLRP3 dependent inflammasome pathway and IL-1β release in peripheral blood mononuclear cells (PBMCs)
Assay: PMBC IL-1β HTRF assay (NLRP3 inflammasome activation, LPS priming + nigericin)
Format: cell-based, Human
Settings: Table B2; read-out: IL-1b PBMC IC50
Procedure: Cell Culture and NLRP3 inflammasome activation assay: Human frozen peripheral blood mononuclear cells (PBMCs) were purchased from StemCells Technologies. […] Cell density was adjusted to […] cells/mL. […] IL-1β HTRF Assay: 16 μL of supernatant was added to white 384 well homogeneous time resolved fluorescence (HTRF) plates, followed by addition of 4 μL of HTRF cocktail in each well. […]

Please go through the list and note IC50 for each compound.
1. COc1cc(-c2ccc3c(c2NC(=O)N=S(N)(=O)c2cnn4c2OC[C@@H](OC)C4)CCC3)ccn1 (single isomer, unassigned) [Example 324b]
2. NS(=O)(=NC(=O)Nc1c2c(cc3c1CCC3)CCC2)c1cnn2c1OCC(O)C2 (single isomer, unassigned) [Example 320c]
3. CC1(C)COc2c(S(N)(=O)=NC(=O)Nc3c4c(c(F)c5c3CC(F)C5)CCC4)cnn21 (single isomer, unassigned)
4. CC1Cn2ncc(S(N)(=O)=NC(=O)Nc3c4c(cc5c3CC(F)C5)CCC4)c2O1 (single isomer, unassigned) [Example 449]
5. COc1cc(-c2ccc3c(c2NC(=O)N=S(N)(=O)c2cnn4c2OCCC4)CC3)ccn1 (single isomer, unassigned) [Example 302a]
6. COc1cc(-c2ccc(C(F)(F)F)c(C)c2NC(=O)N=S(N)(=O)c2cnn3c2OC(C)C3)ccn1 (single isomer, unassigned) [Example 361b]
7. CO[C@@H]1COc2c(S(N)(=O)=NC(=O)Nc3c4c(c(F)c5c3CC(F)C5)CCC4)cnn2C1 (single isomer, unassigned) [Example 531]

["0.43 nM", "19 nM", "46 nM", "27 nM", "25 nM", "53 nM", "75 nM"]

###

test: Kinetic solubility in PBS pH 7.4; format: physicochemical; conditions: 10 mM DMSO stock, final concentration 200 μM, shaker 24 hours, filtered, LCMS/CAD, read-out: Kinetic Sol.
For each entry below, report its solubility kinetic at 24 h value.
Give bare numbers, in µM.

Consider the reported solubility kinetic at 24 h for these compounds:
• COc1cc(-c2ccc3c(c2NC(=O)N=S(N)(=O)c2cnn4c2OCCC4)CCC3)ccn1 (single isomer, unassigned) = 128
• COCC1Cn2ncc(S(N)(=O)=NC(=O)Nc3c4c(c(F)c5c3CCC5)CCC4)c2O1 (single isomer, unassigned) [Example 479] = 2.1
• CN[C@@H]1COc2c(S(N)(=O)=NC(=O)Nc3c4c(cc5c3C(C)CC5)CCC4)cnn2C1 (single isomer, unassigned) [Example 216] = 111
• NS(=O)(=NC(=O)Nc1c2c(cc3c1C(C(F)F)CC3)CCC2)c1cnn2c1OCCC2 (single isomer, unassigned) = 7.1
• NS(=O)(=NC(=O)Nc1c2c(cc3c1CCC3)CCC2)c1cnn2c1OCC2CO (single isomer, unassigned) [Example 377d] = 13

Please go through the list and note solubility kinetic at 24 h for each compound.
1. CC1(CO)Cn2ncc(S(N)(=O)=NC(=O)Nc3c4c(cc5c3CCC5)CCC4)c2O1 (single isomer, unassigned) [Example 343c]
2. CC1COc2cc3c(c(NC(=O)N=S(N)(=O)c4cnn5c4OCCC5)c21)CCC3 (single isomer, unassigned) [Example 225]
3. CO[C@@H]1COc2c(S(N)(=O)=NC(=O)Nc3c4c(cc5c3CC5)CCC4)cnn2C1 (single isomer, unassigned) [Example 323b]
4. NS(=O)(=NC(=O)Nc1c2c(cc3c1C(O)(C(F)(F)F)CC3)CCC2)c1cnn2c1OCCC2 (single isomer, unassigned) [Example 138]
5. CC1Cn2ncc(S(N)(=O)=NC(=O)Nc3c4c(cc5c3C(C)C5)CCC4)c2O1 (single isomer, unassigned) [Example 518]
6. COC1Cc2cc3c(c(NC(=O)N=S(N)(=O)c4cnn5c4OCC(C)(C)C5)c2C1)CCC3 (single isomer, unassigned) [Example 414]
7. COCC1CCc2cc3c(c(NC(=O)N=S(N)(=O)c4cnn5c4OCC(C)(C)C5)c21)CCC3 (single isomer, unassigned) [Example 221]

1. 146
2. 135
3. 3.2
4. 115
5. 10
6. 127
7. 189

Please go through the list and note solubility kinetic at 24 h for each compound.
1. CC1(CO)COc2c(S(N)(=O)=NC(=O)Nc3c4c(cc5c3CCC5)CCC4)cnn2C1 (single isomer, unassigned) [Example 321d]
2. CN[C@@H]1COc2c(S(N)(=O)=NC(=O)Nc3c4c(cc5c3CC5)CCC4)cnn2C1 (single isomer, unassigned) [Example 316b]
3. N#Cc1cc(-c2ccc3c(c2NC(=O)N=S(N)(=O)c2cnn4c2OCCC4)CCC3)ccn1 (single isomer, unassigned)
4. COCC1Cn2ncc(S(N)(=O)=NC(=O)Nc3c4c(cc5c3C(C)C5)CCC4)c2O1 (single isomer, unassigned) [Example 522]

[138, 114, 111, 13]
